# Tested on: MDA-MB-231
# experiment.description: Cell growth measurement
# Assay type: cell-based
# reported.conditions: 10 days of treatment
observation.type: effect on cell growth

>>> measured_result("CC1(C)CCC(C)(C)c2cc(-c3ccc4cc(C(=O)O)ccc4c3)ccc21 [TTNN, reference compound]")
"little to no effect"
>>> measured_result("CC1=C(/C=C/C(C)=C/C=C/C(C)=C/C(=O)O)C(C)(C)CCC1 [ATRA, all-trans-retinoic acid]")
"little to no effect"

###

# system: UniProt:P10276
# Sequence (P10276 whole entry, species assumed): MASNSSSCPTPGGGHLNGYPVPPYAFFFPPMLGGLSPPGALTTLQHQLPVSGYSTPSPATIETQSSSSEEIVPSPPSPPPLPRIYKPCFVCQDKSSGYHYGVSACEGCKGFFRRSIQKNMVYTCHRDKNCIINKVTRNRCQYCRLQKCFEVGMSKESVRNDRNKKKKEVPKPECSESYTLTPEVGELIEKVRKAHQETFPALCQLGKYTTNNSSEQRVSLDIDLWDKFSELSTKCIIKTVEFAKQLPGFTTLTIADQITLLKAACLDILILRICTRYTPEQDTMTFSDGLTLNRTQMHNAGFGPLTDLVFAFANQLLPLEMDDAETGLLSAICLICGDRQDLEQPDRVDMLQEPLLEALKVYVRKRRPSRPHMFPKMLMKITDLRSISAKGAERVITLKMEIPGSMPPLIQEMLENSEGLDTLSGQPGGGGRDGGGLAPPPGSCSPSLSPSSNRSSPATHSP
# experiment.description: BRET assay of agonist-dependent coactivator recruitment in transfected HEK293 cells
# Assay type: cell-based
# reported.conditions: 1 μM, 2 hours treatment
observation.type: RARα agonism (BRET signal)

>>> measured_result("CC1(C)CCC(C)(C)c2cc(-c3ccc4cc(C(=O)NO)ccc4c3)ccc21 [hybrid 3]")
"agonists of RARα"
>>> measured_result("CC1=C(/C=C/C(C)=C/C=C/C(C)=C/C(=O)O)C(C)(C)CCC1 [ATRA, all-trans-retinoic acid]")
"agonists of RARα"
>>> measured_result("CC1(C)CCC(C)(C)c2cc(-c3ccc4cc(C(=O)O)ccc4c3)ccc21 [TTNN, reference compound]")
"agonists of RARα"
